# TGI per record follows
- Tested on: 786-0 renal
- protocol_description: NCI tumour cell line growth inhibition, 48 h
Give just the number in µM; leave the unit off.

stdin: # lookup: TGI of C[C@@H]1CCC2[C@@H](C)[C@H](O[C@H]3O[C@@H]4O[C@@]5(C)CCC6[C@H](C)CCC([C@H]3C)[C@]64OO5)O[C@@H]3O[C@@]4(C)CCC1[C@@]23OO4 (stereo partly specified)
stdout: 18

Further cases:
stdin: # lookup: TGI of C#CC[C@@H]1C[C@]2(C)[C@H]3CC[C@@H]4[C@H]5[C@H](C(=C)C)CC[C@]5(C(=O)O)CC[C@@]4(C)[C@]3(C)CC[C@H]2C(C)(C)[C@H]1O
stdout: 3.4

stdin: # lookup: TGI of O=C1Nc2cc(Cl)ccc2Oc2cc(Oc3ccccc3)ccc21
stdout: 42.2

stdin: # lookup: TGI of COc1ccc(Nc2c3c4c(cccc4[nH]c2=O)C(=O)c2ccccc2-3)cc1
stdout: 19.6

stdin: # lookup: TGI of CC/C(Cl)=N\OC(=O)Nc1ccccc1OC(F)(F)F
stdout: 23.5

stdin: # lookup: TGI of CCCCCCc1cc2cc(C(=O)Nc3ccccc3F)c(=N)oc2cc1O
stdout: 24.9

stdin: # lookup: TGI of Fc1ccc(CNc2c3ccccc3nc3ccccc23)cc1
stdout: 11.7

stdin: # lookup: TGI of Oc1ccc2ccccc2c1-c1c(Nc2ccccc2)ccc2ccccc12
stdout: 34.2

stdin: # lookup: TGI of O=C(c1ccccc1)c1ccc(Cl)c([N+](=O)[O-])c1
stdout: 99.2

stdin: # lookup: TGI of CC(=O)c1ccc(N2CCN(c3c(O)c4c(c(O)c3Cl)C(=O)C=CC4=O)CC2)cc1
stdout: 27.2

* * *

# GI50 per record follows
- Test system: UACC-62 melanoma
- protocol_description: NCI tumour cell line growth inhibition, 48 h

# example entries with known answers
stdin: # lookup: GI50 of COc1ccccc1CNCCCN1C(=O)c2ccc3c4c(ccc(c24)C1=O)C(=O)N(CCCNCCCCNCCCCN)C3=O
stdout: 1.53 µM

stdin: # lookup: GI50 of COc1ccc(-c2cc(-c3ccc(O)cc3)nc3nc(=S)[nH]c(N)c23)cc1
stdout: 14.7 µM

Attention now turns to another entry.
stdin: # lookup: GI50 of O=C1Nc2ccccc2C1(c1ccc(O)c(F)c1)c1ccc(O)c(F)c1
stdout: 10.2 µM

* * *

- Test system: HT29 colon
- protocol_description: NCI tumour cell line growth inhibition, 48 h; in the data active = GI50 below about 0.43 µM; inactive = the rest
// classify into active, inactive

Sample answers from the record:
stdin: Recorded test outcome, item CN(C)c1ccc(/C=C(\C#N)c2cc3ccccc3n2C)cc1
stdout: active

stdin: Recorded test outcome, item O=C(CCc1nnc(-c2c(Cl)cccc2Cl)o1)c1nc2ccccc2[nH]1
stdout: inactive

stdin: Recorded test outcome, item CN(C)CCCNC(=O)c1cc(NC(=O)CCNC(=O)c2ccc3c(c2)C(=O)c2ccccc2C3=O)cn1C
stdout: inactive

stdin: Recorded test outcome, item O=C1Nc2cc(Cl)ccc2Oc2cc(Oc3ccccc3)ccc21
stdout: inactive

Now let's try a different one.
stdin: Recorded test outcome, item C=C1C(=O)O[C@H]2[C@H]1CC/C(COC(=O)/C=C\C(=O)NCc1ccc(Cn3c(=O)sn(-c4ccc(OC)cc4)c3=O)cc1)=C\CC[C@@]1(C)O[C@@H]21
stdout: active
